Every entry's value here was drawn from PubChem BioAssay (NCI).

# System: HOP-92 NSCLC
# protocolText: NCI-60 one-dose screen, 48 h
# measurementConditions: 10 µM unless noted
The panel holds about 83,000 compounds, 20% with a hit somewhere; the sample as a whole holds those more often. Active and inactive are the calls of the source. The calls were made as follows: active = growth percent below 10; inactive = the rest.
Respond with a class label; see active, inactive

• COc1ccc2c(c1)C(=O)/C(=C/c1ccccn1)CC2 = inactive

Incoming: // outcome(item) with item = "COc1ccc(CCNc2nc3c(c(=O)n(Cc4ccc(Br)cc4)c(=O)n3C)n2C)cc1OC"
Outgoing: inactive

Incoming: // outcome(item) with item = "COc1nc2c(c(=O)n1C)CN(Cc1ccccc1)C=N2"
Outgoing: inactive

Incoming: // outcome(item) with item = "CCOc1nc(-c2ccccc2)cc2c(O)c(C(=O)N/N=C/c3ccc(O)cc3O)[nH]c(=O)c12"
Outgoing: active

Incoming: // outcome(item) with item = Cc1cc(N2CCCC2)nc(NC2CCCC(Nc3ccnc4cc(Cl)ccc34)C2)n1 (stereo not given)
Outgoing: active

---

# Test system: MDA-MB-231 breast
# protocolText: NCI-60 one-dose screen, 48 h
# measurementConditions: 10 µM unless noted
Compounds without any hit were thinned out: in the full panel of roughly 83,000, 20% have a hit. Active and inactive are the calls of the source. How the source made its calls: active means growth percent below 10; inactive means the rest.
Respond with a class label; see active, inactive

- O=c1cc(CSc2nnc(SCc3cc(=O)oc4c3ccc3ccccc34)o2)c2ccc3ccccc3c2o1: inactive
- COc1cc(-c2nc3cc(Cl)c(Cl)cc3[nH]2)ccc1OCC(=O)N=Nc1c(O)[nH]c2ccccc12: active
- COc1cc(C(=O)/C=C/c2cccnc2Nc2ccc(Cl)cc2)cc(OC)c1OC: active
- C=C(C)[C@@H]1CC[C@]2(C(=O)OC)CC[C@]3(C)[C@H](CC[C@@H]4[C@@]5(C)C/C(=C/c6cccc(I)c6)C(=O)C(C)(C)[C@@H]5CC[C@]43C)[C@@H]12: inactive
- Cn1ccnc1C(=O)/C=C/c1ccc(CC(=O)Nc2ccccc2)cc1: inactive

Incoming: // outcome(item) with item = "O=C(/C=C/c1cccc(Cl)c1)c1ccc(O)c(CN2CCN(c3cc4c(cc3F)c(=O)c(C(=O)O)cn4C3CC3)CC2)c1"
Outgoing: inactive

Incoming: // outcome(item) with item = "COc1ccccc1NS(=O)(=O)c1ccc2oc(SC(C)C)nc2c1"
Outgoing: inactive

Incoming: // outcome(item) with item = "COc1cc(/C=C/C(=O)Nc2cccnc2Nc2ccc(F)cc2)cc(OC)c1OC"
Outgoing: inactive

Incoming: // outcome(item) with item = "CSc1nc(NCc2ccccc2)c(C#N)c(-c2cccc([N+](=O)[O-])c2)n1"
Outgoing: inactive

Incoming: // outcome(item) with item = "CNC(=O)c1cc(Oc2ccc(NC(=O)Nc3ccc(Cl)c(OC(F)(F)F)c3)c(F)c2)ccn1"
Outgoing: inactive

Incoming: // outcome(item) with item = "O=C(N(c1ccccc1)c1ccccc1)n1ccc2nc(Cl)nc(Cl)c21"
Outgoing: inactive

Incoming: // outcome(item) with item = "NC(=O)c1cc(I)ccc1NC(=O)/C=C/c1ccccc1Cl"
Outgoing: inactive

Incoming: // outcome(item) with item = "COc1cc2c(cc1-c1c(C)noc1C)ncc1nc(-c3ccccn3)n([C@H](C)COC(F)F)c12"
Outgoing: inactive

Incoming: // outcome(item) with item = "Nc1ccc(-c2cc3c(Nc4ccc(Oc5cccc(C(F)(F)F)c5)c(Cl)c4)ncnc3s2)cc1"
Outgoing: inactive

Incoming: // outcome(item) with item = "CCCCC[C@H]1C/C=C2/C(=O)C=C[C@@H]2C/C=C\CCCC(=O)O1"
Outgoing: active

Incoming: // outcome(item) with item = "O=C(CCCCC(=O)N/N=C\c1ccccc1O)N/N=C\c1ccccc1O"
Outgoing: inactive

Incoming: // outcome(item) with item = "CCCN1CCN(c2ccc3nc(-c4ccc5nc(-c6ccc(OCC)cc6)[nH]c5c4)[nH]c3c2)CC1"
Outgoing: inactive

Incoming: // outcome(item) with item = "COc1ccc2c(c1)C(=O)/C(=C/c1ccccn1)CC2"
Outgoing: inactive

Incoming: // outcome(item) with item = "CCOc1nc(-c2ccccc2)cc2c(O)c(C(=O)N/N=C/c3ccc(O)cc3O)[nH]c(=O)c12"
Outgoing: inactive

---

# System: HS 578T breast
# protocolText: NCI-60 one-dose screen, 48 h
# measurementConditions: 10 µM unless noted
# Procedure: Growth inhibition of the HS 578T human tumor cell line is measured as a screen for anti-cancer activity. Cells are grown in 96 well plates and exposed to the test compound for 48 hours. Compounds are tested at a single concentration, which is 10^-5 M for most compounds. The reported endpoint is percent growth (GI% or GIPRCNT), where numbers from 0 - 100% represent growth inhibition, and numbers from -100% - 0 represent cell death. For example, a value of 40 represents 60% growth inhibition. […]
This is part of a sample that, as a whole, favours compounds with a hit. Of some 83,000 tested, about 20% had one in any assay. The source made the active and inactive calls. The calls were made as follows: active = growth percent below 10; inactive = the rest.
Respond with a class label; see active, inactive

- C#CCOc1ccc2ncnc(NCc3cccc(NC(=O)CCl)c3)c2c1: inactive
- O=C1c2ccccc2OC=C(c2ccccc2)N1CCCCNc1ccc(S(=O)(=O)Nc2ncccn2)cc1: inactive
- O=C(COc1ccc(-c2nc3cc(Cl)c(Cl)cc3[nH]2)cc1)N=Nc1c(O)[nH]c2ccccc12: active
- O=C1CSC(=S)N1CCc1ccc(O)cc1: inactive
- COCCNc1ccc2c3c(cccc13)C(=O)N(CCN(C)C)C2=O: inactive
- CCCSc1ccc2nc(NC(=O)OC)[nH]c2c1: inactive
- COc1ccc(CN2c3ccccc3Sc3ccccc32)cc1O: inactive
- N#CCCN=Nc1c(O)[nH]c2ccc([N+](=O)[O-])cc12: inactive

Incoming: // outcome(item) with item = "COc1cc2nc(N3CCCC3)nc(NCC3CCCCC3)c2cc1OC"
Outgoing: active

Incoming: // outcome(item) with item = "COc1ccc(/C=C(\C#N)C(=O)Nc2cccc(Nc3nc(SC)nc(-c4cccc([N+](=O)[O-])c4)c3C#N)c2)cc1OC"
Outgoing: inactive

Incoming: // outcome(item) with item = "COc1ccc(CN2c3ccccc3Oc3ccccc32)cc1F"
Outgoing: inactive

Incoming: // outcome(item) with item = "O=C(Nc1ccc(Cl)cc1)c1cc2cc(F)ccc2cc1O"
Outgoing: inactive

Incoming: // outcome(item) with item = "COc1ccc(C(=O)COc2ccc(/C=C3\Oc4ccc(OC)cc4C3=O)cc2)cc1"
Outgoing: inactive

Incoming: // outcome(item) with item = COc1cccc2c1C(=O)c1c(O)c3c(c(O)c1C2=O)C[C@](O)(C(=O)CO)C[C@H]3O[C@@H]1C[C@@H](NC(=O)CCCN(C)C2(c3ccc(F)cc3)CC3CCC2C3)[C@H](O)[C@@H](C)O1 (stereo not given in full)
Outgoing: inactive

Incoming: // outcome(item) with item = "Cn1cc(-c2nonc2-c2cn(C)c3ccc(F)cc23)c2cc(F)ccc21"
Outgoing: inactive

Incoming: // outcome(item) with item = "CC(C)C1=C[C@@]23CC[C@@H]4[C@](C)(CCC[C@@]4(C)C(=O)N4CCCNCC4)[C@H]2C[C@@H]1[C@H]1C(=O)CCC(=O)[C@H]13"
Outgoing: inactive

---

# Tested on: M14 melanoma
# protocolText: NCI-60 one-dose screen, 48 h (100 = growth as untreated, 0 = no growth, -100 = all killed)
# measurementConditions: 10 µM unless noted
The panel holds about 83,000 compounds, 20% with a hit somewhere; the sample as a whole holds those more often. Activity calls are given as the source filed them. Rule for the calls: active = growth percent below 10; inactive = the rest.
Kindly supply the reported growth values for the records listed here.

Use these answered entries as a reference point.
- Cc1ccc2c(C(C[N+](=O)[O-])c3ccccc3)c(-c3ccccc3)[nH]c2c1 (stereo not given): 22.3% [9.5 µM] (inactive)
- Cn1cc(-c2nonc2-c2c[nH]c3ccc(F)cc23)c2cccnc21: 90.3% (inactive)
- Cc1cc(C)nc(SC2=C(Nc3ccc(C)c(Cl)c3)C(=O)N(Cc3ccccc3)C2=O)n1: 64% [30 µM] (inactive)
- CCCCN(CCCC)CCCn1c(-c2ccccc2)ccc1-c1ccccc1: 77.6% (inactive)
- c1ccc2[nH]c(-c3ccc(Nc4nc(N5CCCC5)nc5[nH]ncc45)cc3)nc2c1: -78% (active)

For each entry beneath this line, provide reported growth.
1. O=C1/C(=C/N2N=C(c3ccc4ccccc4c3)CC2c2ccccc2O)SC(=S)N1c1cccnc1 (stereo not given)
2. O=C1c2ccccc2C(=O)c2c(N=Nc3[nH]c(=S)[nH]c3O)cccc21
3. C=CC(=O)Nc1cccc(-c2nc(SC)nc(NCCN3CCOCC3)c2C#N)c1
4. CCNC(=O)Oc1ccc(/C(=C(\C)c2ccc(Cl)cc2)c2ccc(OCCN3CCCCC3)cc2)cc1

Outgoing:
7.17% (active)
-15.8% (active)
89.9% (inactive)
-46.5% (active)

For each entry beneath this line, provide reported growth.
1. CCNc1ncnc2c1cnn2C1CCCO1 (stereo not given)
2. CCCCC/C(C=C(C#N)C#N)=C/c1ccccc1
3. CC(=O)c1cc2c(N)c(C(=O)Nc3cccc(F)c3C)sc2nc1C
4. COc1ccc(NC(=O)c2ccc(/C=C/C(=O)c3ncc[nH]3)cc2)cc1
5. O=C(N/N=C/c1ccccc1O)c1ccccc1Nc1ccnc(C(F)(F)F)c1
6. CCOc1cc2c(cc1OCC)C(c1cc(OC)c(O)cc1Cl)NCC2 (stereo not given)

Outgoing:
104% (inactive)
73% (inactive)
65.2% (inactive)
87.3% (inactive)
-14.3% (active)
80.2% (inactive)

For each entry beneath this line, provide reported growth.
1. COc1ccc(C2CC(c3ccc4ccccc4c3)=NN2/C=C2\SC(=S)N(NC(=O)Cc3ccccc3Nc3c(Cl)cccc3Cl)C2=O)cc1 (stereo not given)
2. Cn1cc(-c2nonc2-c2cn(C)c3ccc(F)cc23)c2ccccc21
3. O=C(O)COc1ccc(Cl)cc1C1CCCCC1
4. O=C(CCCCC(=O)N/N=C\c1ccccc1O)N/N=C\c1ccccc1O

Outgoing:
-25.1% (active)
18.6% (inactive)
102% (inactive)
20.9% (inactive)

For each entry beneath this line, provide reported growth.
1. COc1cc(-c2nn(-c3ccc(Br)cc3)cc2C(=O)O)ccc1O
2. O=[N+]([O-])c1ccc2c(c1)Cc1cc(F)ccc1-2
3. COc1cc(C(=O)/C=C/c2cccnc2Nc2ccc(Cl)cc2)cc(OC)c1OC
4. O=S(=O)(Nc1ccc(OC(F)F)cc1)c1ccc(-c2cnc(C3CC3)o2)cc1
5. Cc1cc(N2CCN(c3ccnc4cc(Cl)ccc34)CC2)nc(N2CCOCC2)n1
6. COc1cc(-c2nc3ccccc3[nH]2)ccc1OCC(=O)N=Nc1c(O)[nH]c2ccc(Cl)cc12
7. COc1cc2c(cc1-c1c(C)noc1C)ncc1nc(C3CCOCC3)n([C@@H](C)COC(F)F)c12
8. COc1cc2c(cc1-c1c(C)noc1C)ncc1nc(C3CCC(F)(F)CC3)n([C@H](C)COC(F)F)c12

Outgoing:
1: 102% (inactive); 2: 110% (inactive); 3: -47.4% (active); 4: 50.9% (inactive); 5: 87.2% (inactive); 6: -71.7% (active); 7: 41% (inactive); 8: 45.9% (inactive)

For each entry beneath this line, provide reported growth.
1. COc1cc2c(cc1-c1c(C)noc1C)ncc1nc(C3CCOCC3)n([C@H](C)COC(F)F)c12
2. Cc1[nH]c(-c2ccc3cc[nH]c3c2)c2c1C(=O)CCCC2
3. CC(O)CN1CC(O)=C(c2nc3ccccc3s2)C1=N (stereo not given)
4. O=C(Nc1ccc(Cl)cc1)c1cc2cc(F)ccc2cc1O
5. COc1cc(/C=C/C(=O)c2cccnc2Nc2ccc(F)cc2)cc(OC)c1OC
6. COC(=O)c1ccc2oc(NC(=O)c3ccc(Nc4ccc([N+](=O)[O-])cc4C)c([N+](=O)[O-])c3)nc2c1
7. Cc1cn2c(/C=C3/C(=O)Nc4c3ccc3ccccc43)c(C(F)(F)F)nc2s1
8. O=C(O)c1ccc(NC(=O)c2ccc(-c3cccc([N+](=O)[O-])c3)o2)cc1

Outgoing:
["46.2% (inactive)", "51.6% (inactive)", "114% (inactive)", "15.9% (inactive)", "70% (inactive)", "110% (inactive)", "8.69% (active)", "107% (inactive)"]

For each entry beneath this line, provide reported growth.
1. Fc1ccc(CNc2cccc3[nH]c(C(F)(F)F)nc23)cc1
2. C/C1=C\CC[C@@]2(C)O[C@H]2[C@H]2OC(=O)C(CN3CCN(CC4C(=O)O[C@H]5[C@H]4CC/C(C)=C/CC[C@@]4(C)O[C@@H]54)CC3)[C@@H]2CC1 (stereo not given in full)
3. CCCOc1cc2ccccc2cc1C(=O)Nc1nc(NC)c2c(ccc3nccc32)[nH]1
4. O=C(N(c1ccccc1)c1ccccc1)n1ccc2nc(Cl)nc(Cl)c21
5. OCCN1CCN(c2nc(Nc3ccc(-c4nc5ccccc5[nH]4)cc3)c3cn[nH]c3n2)CC1

Outgoing:
1. 109% (inactive)
2. 93.1% (inactive)
3. -75.7% (active)
4. 69.9% (inactive)
5. -78.3% (active)
